Data origin: patent US20230120736A1

Tested system: T1, human CD98 ECD (Homo sapiens, UniProt P08195)
T1 construct: Human CD98 ECD with C-terminal His-tag
T1 sequence (P08195 with tags, fused parts or gaps): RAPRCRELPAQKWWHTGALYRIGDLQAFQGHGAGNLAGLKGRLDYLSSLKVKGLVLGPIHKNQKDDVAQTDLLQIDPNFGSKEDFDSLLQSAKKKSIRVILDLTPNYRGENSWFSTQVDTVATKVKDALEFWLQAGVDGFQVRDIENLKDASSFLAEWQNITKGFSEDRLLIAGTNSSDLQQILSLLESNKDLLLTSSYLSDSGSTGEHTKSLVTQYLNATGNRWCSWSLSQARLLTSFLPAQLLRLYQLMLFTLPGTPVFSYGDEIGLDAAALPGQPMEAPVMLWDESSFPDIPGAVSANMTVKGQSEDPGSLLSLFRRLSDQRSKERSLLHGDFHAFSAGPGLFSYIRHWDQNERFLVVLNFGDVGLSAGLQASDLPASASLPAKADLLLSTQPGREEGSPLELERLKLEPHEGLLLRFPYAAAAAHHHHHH
Procedure summary: Biacore surface plasmon resonance binding kinetics (anti-Fc capture)
Experimental setup: huCD98 ECD
Parameter: ka (M⁻¹ s⁻¹)
Answer in M⁻¹ s⁻¹, number only, no unit symbol.

## Task # query: ka of entry huAb15v2 (antibody, V domains shown) VH: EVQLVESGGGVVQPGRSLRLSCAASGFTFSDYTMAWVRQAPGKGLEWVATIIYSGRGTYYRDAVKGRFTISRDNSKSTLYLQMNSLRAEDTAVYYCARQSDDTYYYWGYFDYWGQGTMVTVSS VL: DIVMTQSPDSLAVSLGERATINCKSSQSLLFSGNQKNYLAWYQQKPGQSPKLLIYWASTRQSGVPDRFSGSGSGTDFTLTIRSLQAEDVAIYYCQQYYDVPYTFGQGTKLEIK
## Result 42000

## Task # ka lookup, item huAb103: "heavy chain variable sequence of huAb103 is provided in SEQ ID NO: 109"; "light chain variable sequence ... in SEQ ID NO: 107" (antibody, V domains shown) VH: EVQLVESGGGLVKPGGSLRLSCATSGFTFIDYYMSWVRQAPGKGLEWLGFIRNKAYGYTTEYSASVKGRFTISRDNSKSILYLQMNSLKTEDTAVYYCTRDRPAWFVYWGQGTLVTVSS VL: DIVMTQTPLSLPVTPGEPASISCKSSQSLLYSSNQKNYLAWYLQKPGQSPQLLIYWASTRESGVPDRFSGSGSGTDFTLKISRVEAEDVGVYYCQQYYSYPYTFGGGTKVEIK
## Result 180000
